Target Entity: HCoV-229E 3CL protease (Human coronavirus 229E, UniProt P0C6U2)
Sequence (P0C6U2 2966-3267): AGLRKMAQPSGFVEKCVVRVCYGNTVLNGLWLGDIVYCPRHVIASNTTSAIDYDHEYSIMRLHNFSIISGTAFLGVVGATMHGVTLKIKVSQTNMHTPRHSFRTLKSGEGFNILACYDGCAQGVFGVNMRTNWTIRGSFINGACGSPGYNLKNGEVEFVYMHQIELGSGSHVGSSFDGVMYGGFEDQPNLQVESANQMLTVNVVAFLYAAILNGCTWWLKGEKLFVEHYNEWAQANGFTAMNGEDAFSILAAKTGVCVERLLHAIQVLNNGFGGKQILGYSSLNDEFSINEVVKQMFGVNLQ
Assay Comment: FRET based protease assay, HCoV-229E 3CL
Particulars: 229E IC50, 6 nM H229E-CoV Chis-3CLpro, 6 μM peptide 1 substrate, 25° C., 1.5 hrs, pH 7.5
pIC50: −log10 of the molar value.
Observable: pIC50

CC1(C)[C@@H]2[C@H]3C(=O)N[C@H](C#N)C[C@@H]4C(=O)NC[C@@H]4CCCC[C@H](NS(=O)(=O)C4(C)CC4)C(=O)N3C[C@@H]21 ... > 7.00
CCO[C@@H]1C[C@H]2C(=O)N[C@H](C#N)C[C@@H]3C(=O)NC[C@@H]3CCCC[C@H](NC(=O)OC(C)(C)C)C(=O)N2C1 ... 6.00 to 7.00
CC(C)(C)C[C@@H]1NC(=O)[C@@H](NC(=O)C2(C(F)(F)F)CC2)CCCC[C@H]2CNC(=O)[C@H]2C[C@@H](C#N)NC1=O ... > 7.00
CC(C)(C)OC(=O)N[C@@H]1CCCC[C@H]2CNC(=O)[C@H]2C[C@@H](C#N)NC(=O)[C@@H]2[C@@H]3[C@H](CN2C1=O)C3(C)C ... < 4.70
CC1(C)[C@@H]2[C@H]3C(=O)N[C@H](C#N)C[C@@H]4C(=O)NC[C@@H]4CCCC[C@H](NC(=O)CC4CC(F)(F)C4)C(=O)N3C[C@@H]21 ... > 7.00
Cc1cc(C(=O)N[C@H]2CCCC[C@H]3CNC(=O)[C@H]3C[C@@H](C#N)NC(=O)[C@@H]3[C@@H]4[C@H](CN3C2=O)C4(C)C)on1 ... > 7.00
N#C[C@@H]1C[C@@H]2C(=O)NC[C@@H]2CCCC[C@H](Nc2nccc(C(F)(F)F)n2)C(=O)N2C[C@@H]3CCC[C@@H]3[C@H]2C(=O)N1 ... 6.00 to 7.00
CC(C)C[C@@H]1NC(=O)[C@@H](NC(=O)C(C)(C)C)CCCC[C@H]2CNC(=O)[C@@H]2C[C@@H](C#N)NC1=O ... 4.70 to 6.00
CC(C)(C)C[C@@H]1NC(=O)[C@@H](NC(=O)c2ccc(F)c(C(F)(F)F)c2)CCCC[C@H]2CNC(=O)[C@H]2C[C@@H](C#N)NC1=O ... 6.00 to 7.00
CC1(C)[C@@H]2[C@H]3C(=O)N[C@H](C#N)C[C@@H]4C(=O)NC[C@@H]4CCCC[C@H](NS(=O)(=O)C4CCC4)C(=O)N3C[C@@H]21 ... > 7.00

For the 2 molecules below, give their pIC50 values.
1. N#C[C@@H]1C[C@@H]2C(=O)NC[C@@H]2CCCC[C@H](NC(=O)OC2CCCC2)C(=O)N2C[C@@H]3CCC[C@@H]3[C@H]2C(=O)N1
2. CC(C)C[C@@H]1NC(=O)CCCCCC[C@H]2CNC(=O)[C@@H]2C[C@@H](C=O)NC1=O

> 7.00
> 7.00

* * *

Target Entity: HCoV-229E 3CL protease (Human coronavirus 229E)
Assay Comment: FRET based protease assay, HCoV-229E 3CL
Particulars: 229E IC50, 6 nM H229E-CoV Chis-3CLpro, 6 μM peptide 1 substrate, 25° C., 1.5 hrs, pH 7.5
Observable: IC50

For the 4 compounds below, give their IC50 values.
1. CC(C)(C)OC(=O)N[C@H]1CC/C=C/[C@H]2CCNC(=O)[C@H]2C[C@@H](C#N)NC(=O)[C@@H]2[C@H]3CCC[C@H]3CN2C1=O
2. CN1C(=O)[C@@H](NC(=O)C(C)(C)C)CCCC[C@H]2CNC(=O)[C@H]2C[C@@H](C#N)NC(=O)[C@@H]1CC(C)(C)C
3. CC(C)C[C@@H]1NC(=O)[C@@H](Cc2ccccc2)CCC[C@H]2CNC(=O)[C@@H]2C[C@@H](C=O)NC1=O [Example 17]
4. N#C[C@@H]1C[C@@H]2C(=O)NC[C@@H]2CCCC[C@H](NC(=O)C(F)(F)F)C(=O)N2C[C@@H]3CCC[C@@H]3[C@H]2C(=O)N1

["1000 to 20000 nM", "100 to 1000 nM", "100 to 1000 nM", "< 100 nM"]

For the 2 compounds below, give their IC50 values.
1. CC(C)C[C@@H]1NC(=O)[C@@H](Cc2ccccc2)CCC[C@H]2CNC(=O)[C@@H]2C[C@@H](C#N)NC1=O
2. CC1(C)[C@@H]2[C@H]3C(=O)N[C@H](C#N)C[C@@H]4C(=O)NC[C@@H]4CCCC[C@H](NC(=O)c4cc(Cl)ccc4Cl)C(=O)N3C[C@@H]21

["1000 to 20000 nM", "< 100 nM"]

* * *

Target Entity: UniProtKB P0C6U2
Assay Comment: FRET based protease assay, HCoV-229E 3CL
Particulars: 229E IC50, 6 nM H229E-CoV Chis-3CLpro, 6 μM peptide 1 substrate, 25° C., 1.5 hrs, pH 7.5
Observable: IC50

CC1(C)[C@@H]2[C@H]3C(=O)N[C@H](C#N)C[C@@H]4C(=O)NC[C@@H]4CCCC[C@H](NS(=O)(=O)C4CC4)C(=O)N3C[C@@H]21 [Example 156] ... < 100 nM
CC(C)C[C@@H]1NC(=O)[C@@H](NC(=O)C(C)(C)C)CCCC[C@H]2CNC(=O)[C@H]2C[C@@H](C#N)NC1=O [Example 44] ... < 100 nM
CC1(C)[C@@H]2[C@H]3C(=O)N[C@H](C#N)C[C@@H]4C(=O)NC[C@@H]4CCCC[C@H](NC(=O)c4ccc(Cl)c(Cl)c4)C(=O)N3C[C@@H]21 [Example 120] ... < 100 nM
CC(C)C[C@@H]1NC(=O)CCCCC[C@H]2CNC(=O)[C@H]2C[C@@H](C=O)NC1=O [Example 30] ... < 100 nM
CC(C)C[C@@H]1NC(=O)[C@@H](Cc2ccccc2)CCC[C@H]2CNC(=O)[C@@H]2C[C@@H](C=O)NC1=O [Example 10] ... 1000 to 20000 nM

Next compound, IC50 to be filled in.
GET /values?readout=IC50&item= CC(C)(C)C(=O)N[C@H]1CCCC[C@H]2CNC(=O)[C@@H]2C[C@@H](C#N)NC(=O)[C@@H]2[C@@H]3[C@H](CN2C1=O)C3(C)C [Example 67]
100 to 1000 nM

* * *

Target Entity: HCoV-229E 3CL protease (Human coronavirus 229E)
Assay Comment: FRET based protease assay, HCoV-229E 3CL
Particulars: 229E IC50, 6 nM H229E-CoV Chis-3CLpro, 6 μM peptide 1 substrate, 25° C., 1.5 hrs, pH 7.5
Observable: IC50

CC(C)C[C@@H]1NC(=O)CCCCC[C@H]2CNC(=O)[C@@H]2C[C@@H](C=O)NC1=O [Example 32] ... < 100 nM
CC(C)C[C@@H]1NC(=O)[C@@H](OC(C)(C)C)CCC[C@H]2CNC(=O)[C@@H]2C[C@@H](C#N)NC1=O [Example 29] ... > 20000 nM
CC(C)C[C@@H]1NC(=O)[C@@H](CC2CCCC2)CCC[C@H]2CNC(=O)[C@@H]2C[C@@H](C=O)NC1=O [Example 18] ... 100 to 1000 nM

For the 3 compounds below, give their IC50 values.
1. CC1(C)[C@@H]2[C@H]3C(=O)N[C@H](C#N)C[C@@H]4C(=O)NC[C@@H]4CCCC[C@H](NC(=O)C(C)(C)C(F)(F)F)C(=O)N3C[C@@H]21 [Example 141]
2. CC(C)(C)OC(=O)N[C@H]1CCCC[C@H]2CNC(=O)[C@H]2C[C@@H](C#N)NC(=O)[C@@H]2[C@H]3CCC[C@H]3CN2C1=O [Example 79]
3. CC(C)(C)OC(=O)N[C@H]1CCCC[C@H]2CCNC(=O)C2C[C@@H](C#N)NC(=O)[C@@H]2[C@H]3CCC[C@H]3CN2C1=O (stereo partly drawn) [Example 98]

1. < 100 nM
2. < 100 nM
3. < 100 nM

* * *

Target Entity: HCoV-229E 3CL protease (Human coronavirus 229E)
Assay Comment: FRET based protease assay, HCoV-229E 3CL
Particulars: 229E IC50, 6 nM H229E-CoV Chis-3CLpro, 6 μM peptide 1 substrate, 25° C., 1.5 hrs, pH 7.5
pIC50: −log10 of the molar value.
Observable: pIC50

For the 2 compounds below, give their pIC50 values.
1. CC(C)C[C@@H]1NC(=O)CCCC[C@H]2CNC(=O)[C@H]2C[C@@H](C=O)NC1=O
2. CC(C)(C)C(=O)N[C@H]1C/C=C\[C@H]2CNC(=O)[C@H]2C[C@@H](C#N)NC(=O)[C@@H]2[C@@H]3[C@H](CN2C1=O)C3(C)C

1: 4.70 to 6.00; 2: 4.70 to 6.00

For the 4 compounds below, give their pIC50 values.
1. CC(C)(C)C[C@@H]1NC(=O)[C@@H](NC(=O)C(C)(C)C)CCCC[C@H]2CNC(=O)[C@H]2C[C@@H](C#N)NC1=O
2. CC1(C)[C@@H]2[C@H]3C(=O)N[C@H](C#N)C[C@@H]4C(=O)NC[C@@H]4/C=C/CC[C@H](NC(=O)C4CC(F)(F)C4)C(=O)N3C[C@@H]21
3. CC(C)C[C@@H]1NC(=O)CCCC[C@H]2CNC(=O)[C@@H]2C[C@@H](C=O)NC1=O
4. CC1(C)[C@@H]2[C@H]3C(=O)N[C@H](C#N)C[C@@H]4C(=O)NC[C@@H]4CCCC[C@H](NC(=O)c4ccc(F)c(C(F)(F)F)c4)C(=O)N3C[C@@H]21

1. > 7.00
2. > 7.00
3. > 7.00
4. > 7.00
